Hello, the source for this data is PubChem BioAssay AID1627, in case you need it.

- target_or_system: UniProtKB P07711
- Sequence (P07711 114-288 limits assumed): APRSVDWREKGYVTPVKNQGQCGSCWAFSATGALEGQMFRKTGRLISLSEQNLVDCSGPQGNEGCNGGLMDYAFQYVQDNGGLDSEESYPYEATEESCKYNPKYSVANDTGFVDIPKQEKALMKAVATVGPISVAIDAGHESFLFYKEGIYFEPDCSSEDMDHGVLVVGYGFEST
- Sequence (P07711 292-333 limits assumed): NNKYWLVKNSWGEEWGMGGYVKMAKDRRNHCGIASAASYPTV
- experiment_notes: cathepsin L inhibition with added cysteine, dose response, biochemical, cysteine present (AID 1627)
- condition_context: purified cathepsin L, fluorogenic substrate
Inconclusive results are not listed. Calls of active or inactive are those of the source. How the calls were made is not given here.
Tick one outcome: active, inactive

Called result for CCCCc1[nH]nc2c1C1(C(=O)N(CC)c3ccccc31)C(C#N)=C(N)O2 (stereo not given)
inactive

For this molecule, state the assay outcome: `Nc1nc2n(n1)C1(CCCCC1)C1=C(CCCC1)N2`
inactive

Each molecule tested received a call. Report the one for COc1ccc(OC)c(C2C(C#N)=C(N)Oc3cc(C)n(Cc4ccccn4)c(=O)c32)c1 (stereo not given) .
inactive

Each molecule tested received a call. Report the one for CCCCOc1ccc(C2C3CN(C(=O)OCC)CC=C3C(C#N)=C(N)C2(C#N)C#N)cc1OC (stereo not given) .
inactive

Give the logged outcome of this assay for the following molecule: `CN1CCc2c(sc3ncn4nc(-c5ccccc5O)nc4c23)C1`
active

Per the assay record, what outcome was assigned to `CC(=O)c1c(O)n(C)c(=S)n(-c2ccccc2)c1=O` ?
inactive

// param item: N#CC1=C(N)Oc2c(sc3ccccc23)C1c1ccco1 (stereo not given) ; yields the recorded call
inactive

Lab log entry: CC(=O)Nc1nc2n(n1)C(c1ccc(F)cc1)C=C(c1ccccc1)N2 (stereo not given) — outcome as called in the assay?
inactive

Answer briefly: the call reported for O=S(=O)(/N=S1/CC=CCN1S(=O)(=O)c1ccccc1)c1ccccc1 (stereo not given) in this assay.
inactive

Which outcome was entered for the molecule CC1=C(C(=O)Nc2ccc(F)cc2)C(c2cccc(C)c2)n2nc(CCCO)nc2N1 (stereo not given) in this test?
inactive
